Catalogue of inhibition of aggregation values
assay: reduction of polyQ htt aggregates in cells – imaging, exon1htt(103Q)mCFP cells, high-content imaging, primary screen (AID 483); conditions: exon1htt(103Q)mCFP cell line, aggregate imaging, at 2 µM; stronger effect = higher value;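 also: compound exposure lasted 3 days before fixation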
Could you give me the number in %? Just the number is fine.

Recorded results for 5 molecules are shown here.
molecule=Brc1ccc2ncnc(Nc3ccc(N4CCOCC4)cc3)c2c1 measured_quantity="inhibition of aggregation" data_value=8.9
molecule=Cc1ccc(NC(=O)c2ccco2)c(NC(=O)CN2C(=O)c3ccccc3C2=O)c1 measured_quantity="inhibition of aggregation" data_value=6.5
molecule=C=C(C)Cn1c(CCNC(=O)CC)nc2ccccc21 measured_quantity="inhibition of aggregation" data_value=1.3
molecule="COCCOC(=O)C1=C(N)OC2=C(C(=O)CC(C)(C)C2)C1c1cccnc1 (stereo unspecified)" measured_quantity="inhibition of aggregation" data_value=9.7
molecule="O=C(Nc1ccccc1C(=O)NCC1CCCO1)c1ccco1 (stereo unspecified)" measured_quantity="inhibition of aggregation" data_value=-23.2

Sure, the documented inhibition of aggregation for CCN(C(C)=O)c1nnc(CSc2nc3ccccc3s2)s1 is 10.2

inhibition of aggregation reported for this molecule CCN1CCN(Cc2ccc(NC(=O)Nc3ccccc3)cc2)CC1 : -20.2

The reported inhibition of aggregation of the molecule COC(=O)c1cc2ccsc2n1CC(=O)N(C)c1ccccc1 was -8.1

# inhibition of aggregation of CC1(C)CC(=O)C2=C(C1)Nc1nc(SCCN3CCOCC3)[nH]c(=O)c1C2c1cccs1 (stereo unspecified) = -11.8

response.value for O=C1c2ccccc2C(O)(Cc2ccccc2)N1Cc1ccco1 (stereo unspecified) (field: inhibition of aggregation) = -10.1

Reported inhibition of aggregation of CCOC(=O)CC(=O)CSc1nc(-c2cccnc2)ccc1C#N : -23.5

====

List of inhibition of aggregation values.
assay: reduction of polyQ htt aggregates in cells – imaging, exon1htt(103Q)mCFP cells, high-content imaging, primary screen (AID 483); details: exon1htt(103Q)mCFP cell line, aggregate imaging, at 2 µM; stronger effect = higher value;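 also: compound exposure lasted 3 days before fixation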
Numeric answer only, unit % assumed.

compound=Cc1ccc(C)n1-n1c(C)nc2sc(-c3ccccc3)cc2c1=O unit_abbreviation=% data_value=-8.2

Recorded inhibition of aggregation (compound CCCCc1ccc(NC(=O)C2CCCO2)cc1 (stereo unspecified) ): -7.2

====

experiment: reduction of polyQ htt aggregates in cells – imaging, exon1htt(103Q)mCFP cells, high-content imaging, primary screen (AID 483); details: exon1htt(103Q)mCFP cell line, aggregate imaging, at 2 µM; measured here: cell count, toxicity;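 also: compound exposure lasted 3 days before fixation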;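 as to nuclei count: percent of the per-plate median nuclei count of sample wells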
Measured Quantity: nuclei count (%)
Answer format: numeric, % implied, no suffix.

Example molecules with recorded nuclei count:
molecule=CCCNC(=O)c1c(N)n(-c2cc(OC)cc(OC)c2)c2nc3ccccc3nc12 measured_quantity="nuclei count" data_value=93.7
molecule=Cc1cc(NS(=O)(=O)c2ccc(NC(=O)COc3ccc(Cl)cc3)cc2)no1 measured_quantity="nuclei count" data_value=118
molecule=CCOC(=O)c1nnc2ccnn2c1N measured_quantity="nuclei count" data_value=108
molecule="CCCCCCn1c(CN2CCCC(C)C2)nc2c1c(=O)n(C)c(=O)n2C (stereo not drawn)" measured_quantity="nuclei count" data_value=104

Let's switch to this molecule now.
Lab book: nuclei count of COc1ccc(CC(=O)Nc2c3c(nn2-c2cccc(Cl)c2)CS(=O)(=O)C3)cc1 noted as 98.5

====

assay: reduction of polyQ htt aggregates in cells – imaging, exon1htt(103Q)mCFP cells, high-content imaging, primary screen (AID 483); settings: exon1htt(103Q)mCFP cell line, aggregate imaging, at 2 µM; measured here: cell count, toxicity;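 also: compound exposure lasted 3 days before fixation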;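 as to nuclei count: percent of the per-plate median nuclei count of sample wells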
Reported nuclei count values are given for each entry in this list.
Kindly answer with a numeric value in %, unit omitted.

molecule="Cc1ccc(OC(=O)NC2CCS(=O)(=O)C2)cc1C (stereo unspecified)" measured_quantity="nuclei count" unit_abbreviation=% data_value=98.6
molecule=Cc1c2c(nc3nc4ccccc4n13)CC(C)(C)CC2=O measured_quantity="nuclei count" unit_abbreviation=% data_value=109
molecule="COc1ccccc1N1CCN(C(CNS(=O)(=O)c2cc(F)ccc2F)c2cccnc2)CC1 (stereo unspecified)" measured_quantity="nuclei count" unit_abbreviation=% data_value=96.7
molecule="O=C(O)C1CCCN1c1ncnc2c1oc1ccccc12 (stereo unspecified)" measured_quantity="nuclei count" unit_abbreviation=% data_value=101
molecule=O=C(c1ccc(S(=O)(=O)N2CCOCC2)cc1)N1CCc2ccccc2C1 measured_quantity="nuclei count" unit_abbreviation=% data_value=103

// recorded nuclei count for CCOC(=O)c1ccc(N2C(=O)C3CC=CCC3C2=O)cc1 (stereo unspecified) : 104

====

Item-by-item account of inhibition
experiment: endothelial E-selectin expression blockers – imaging, HUVEC, immunofluorescence, MLSMR starter and 10KST1 sets, primary screen (AID 487); settings: HUVEC TNFalpha-induced E-selectin immunofluorescence imaging, at 2 µM; stronger effect = higher value;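 also: signal is fraction of cell area covered by stained E-selectin grains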
Response body: numeric value in %, unit text excluded.

Check out these entries, answers already filled in.
molecule=CCOc1ccc2[nH]cc(C(=O)N3CCN(CC)CC3)c(=O)c2c1 data_value=-18.9
molecule=COc1ccc(CN(C(=O)CN2C(=O)COc3ccccc32)C2CCCC2)c(OC)c1 data_value=4.9

Reported inhibition ( CCC(=O)N/C(N)=N/c1nc(C)c2cc(OC)ccc2n1 ) = 9.1

Per the record, COc1cccc(C2C(C(=O)c3cccs3)=C(O)C(=O)N2CCCn2ccnc2)c1OC (configuration not stated) has inhibition of -168

inhibition reported for this molecule Cc1cc(=O)oc2cc(Oc3ncccn3)ccc12 : -29.9

Reported inhibition of CCOc1nc2ccccc2nc1NS(=O)(=O)c1ccccc1 : -10

Recorded result, CC(C)Sc1nc2c(c(=O)n1-c1ccc(F)cc1)SCC2 , inhibition: -22

Record COc1cc(OC)cc(-c2nc3cc(C)ccc3o2)c1 . Reported inhibition: -55.4

Recorded inhibition (molecule Cc1cc(C)c(NC2=NCC(=O)N2C2CCCCC2)c(C)c1 ): -32.7

Just so you know, measured inhibition for O=C(O)c1ccc(CSc2ncn[nH]2)cc1 came out at -14.9

inhibition in this record for COc1ccc(N2CCN(C(=O)CSc3ccccc3)CC2)cc1 : -18.6

According to the records, this molecule OC(CNCCc1ccccc1)c1ccccc1 (configuration not stated) displays inhibition of 48.6

Lab note: measured inhibition of Cc1ccc(CS(=O)(=O)CCC(=O)NCC2CCCO2)cc1 (configuration not stated) was -191

The value of inhibition measured for the molecule O=C(c1ccc(Br)cc1)N1CCN(S(=O)(=O)c2ccccc2)CC1 turned out to be -43.3

====

assay: TLR3 IRF3 reporter activation blockers – cell-based, poly I:C stimulus, luciferase, 10K MLSCN set, primary screen (AID 602277); conditions: HEK293-TLR3 RL24 IRF3 luciferase reporter, at 10 µM, stronger effect = higher value
inhibition reference
Entry rule: numbers only, all in %.

So for COc1ccc(OCC(=O)Nc2ccc(N3CCOCC3)c(Cl)c2)cc1 , the logged inhibition turned out to be 5.62

GET /value?item= COc1ccccc1NC(=O)NC1(C(=O)N2CCC(O)CC2)CCCCC1 &field=inhibition returns 2.89

Notebook: COc1ccccc1N(CC(=O)NC1CCCC1)C(=O)CCC(=O)Nc1cc(C)on1 , inhibition read as -11.2

Data point: Cc1ccc2c(c1)NC(=O)C(CC(=O)NCCCN1CCN(c3cc(Cl)ccc3C)CC1)O2 (stereo unspecified) ; inhibition = -8.91

compound CN(C)CCCN1C(=O)c2oc3ccc(Cl)cc3c(=O)c2C1c1cccnc1 (stereo unspecified) , inhibition observed: 39

Consider O=C(NCC1COc2ccccc2O1)c1ccc(NC(=O)c2ccco2)cc1 (stereo unspecified) . Its measured inhibition is 20

====

assay: inhibitors of TNFa-induced NFkB p65 translocation, primary screen, imaging, HUVEC, MLSMR starter and 10KST1 sets (AID 438); conditions: HUVEC TNFa-induced p65 nuclear translocation; at 2 µM, stronger effect = higher value, 0% TNFa-plus-vehicle, 100% no-TNFa wells;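 also: compound added about 3h40 before a 20 min TNFalpha stimulation; signal is the nuclear over cytoplasmic p65 intensity ratio per well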
# reported inhibition; entries follow
All answers are understood in %, so give the number only.

Please review the entries below; each comes with its answer.
compound=N#CCSc1nc(-c2ccccc2)cs1 data_value=5
compound=CCSC1=NCN(CCCC(=O)O)CN1 data_value=10.1
compound=C1=Nc2c(NCc3ccccc3)ncnc2Oc2ccccc21 data_value=-0.2
compound="COc1ccc(NC(=O)CSc2nnc(-c3ccncc3)n2CC2CCCO2)c(OC)c1 (configuration not stated)" data_value=-6.1
compound=O=C(NC1CCCCCC1)c1c(F)c(F)c(F)c(F)c1F data_value=1.8

Notebook: C/C(N)=C(/C#N)C(=O)COC(=O)COc1ccc(Cl)cc1 , inhibition read as 4.3

Summary for this compound, Cc1cc(C)nc(SCc2ccc3nonc3c2)n1 : inhibition is -4.3

Lab book: inhibition of COC(=O)C1=C(C)N(Cc2ccco2)C(=O)C1 noted as 0.7

response.value for Cc1cccc(NC(=O)c2cc3ccccc3o2)c1 (field: inhibition) = -23

Entry CCN1CCN(CCNC(=O)c2cn(C(C)c3ccccc3F)nn2)CC1 (configuration not stated) — recorded inhibition = -29.6

The compound identified as CCN(c1ccc(OC)cc1)S(=O)(=O)c1ccc2c(c1)CCN2C(=O)CCC(=O)O registered its inhibition at 8.3

The recorded inhibition for CCC(C)OC(=O)c1[nH]c2c(c1C)C(=O)CC(c1ccc(N(C)C)cc1)C2 (configuration not stated) is -3.2
